Data origin, for the record: patent US12692262B2

# Lookup of reported % of maximum agonist effect (relative to Orexin A) keyed by entry
- Target: human OX2R (Homo sapiens)
- Construct: expressed in transfected cells; host or cells: CHO (Chinese hamster ovary) cells grown under G418 selection
- Assay remarks: IPOne (IP-1 accumulation) assay in CHO cells expressing human OX2R
- Type: cell-based
- Recorded conditions: percent effect vs mean max effect of a reference compound at 1 uM (100% activity vs Orexin A), human OX2R
Your answer should be a plain number; it is taken to be in %.

molecule="CCN(C(=O)N[C@@H](CCC(F)(F)F)C(F)(F)F)C(C)c1cnnc(-c2cn3ccnc3c(OC)n2)c1 (stereo partly shown) [Example 2-64]" unit_descriptor=% measurement=81.2
molecule="CCN(C(=O)N[C@@H]1CC[C@H](C(F)(F)F)C1)[C@H](C)c1cccc(-c2cn3ccnc3c(OC)n2)c1 [Example 1-3]" unit_descriptor=% measurement=99.9
molecule="CC[C@H](CCC(F)(F)F)NC(=O)N(CC)[C@H](C)c1ccc(Cl)c(-c2cc(OC)c3nccn3c2)c1 [Example 14-2]" unit_descriptor=% measurement=96.0

Next, consider the following molecule.
# % of maximum agonist effect (relative to Orexin A) (molecule: COc1cnc([C@H](N(C(=O)N[C@@H](CCC(F)(F)F)C(F)(F)F)C2CC2)C(F)(F)F)cc1-c1cn2cc(C)nc2c(OC)n1 [Example 2-19] ) is 102.0

* * *

# Lookup of reported EC50 keyed by entry
- Target: human OX2R (Homo sapiens, UniProt O43614)
- Sequence (O43614 whole entry): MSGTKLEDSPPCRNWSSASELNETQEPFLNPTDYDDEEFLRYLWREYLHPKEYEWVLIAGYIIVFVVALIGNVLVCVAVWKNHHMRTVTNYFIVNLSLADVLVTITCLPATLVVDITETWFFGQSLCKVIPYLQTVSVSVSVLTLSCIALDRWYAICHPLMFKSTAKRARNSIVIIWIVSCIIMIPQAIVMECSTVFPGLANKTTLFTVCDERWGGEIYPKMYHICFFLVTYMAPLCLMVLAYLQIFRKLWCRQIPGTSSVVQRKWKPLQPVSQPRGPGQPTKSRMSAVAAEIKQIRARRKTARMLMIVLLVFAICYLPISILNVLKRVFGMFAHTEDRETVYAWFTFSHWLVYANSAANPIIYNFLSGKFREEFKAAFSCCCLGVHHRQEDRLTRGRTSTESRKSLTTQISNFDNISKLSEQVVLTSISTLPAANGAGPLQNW
- Assay remarks: IPOne (IP-1 accumulation) assay in CHO cells expressing human OX2R
- Recorded conditions: CHO cells expressing human OX2R; IP-One assay, 2 h incubation; four parameter logistic fit; read-out: OX2R Potency, EC50

compound="CCN(C(=O)N[C@@H](CCC(F)(F)F)C(F)(F)F)C(c1cc(-c2cn3c(C#N)cnc3c(OC)n2)c(OC)cn1)C(F)(F)F (some centres unmarked) [Example 10-12]" measurement="70.1 nM"
compound="CCN(C(=O)NC[C@H]1COCC(=O)N1)[C@H](C)c1cccc(-c2cn3ccnc3c(OC)n2)c1 [Example 1-6]" measurement="193 nM"
compound="CCC(CCC(F)(F)F)NC(=O)N(CC)[C@H](C)c1cccc(-c2cnc3nccn3c2)c1 (some centres unmarked) [Example 8-7]" measurement="180 nM"
compound="CCN(C(=O)NC(COC(C)=O)C(F)(F)F)[C@H](C)c1cccc(-c2cn3ccnc3c(OC)n2)c1 (some centres unmarked) [Example 22]" measurement="25.3 nM"
compound="CCN(C(=O)NC(C#N)C1CCCC1)[C@H](C)c1cccc(-c2cn3ccnc3c(OC)n2)c1 (some centres unmarked) [Example 1-10]" measurement="8.3 nM"

# EC50 (compound: CCN(C(=O)NC(C1CC(F)(F)CC(C)(C)O1)C(F)(F)F)[C@@H](c1cc(-c2cn3cc(C)nc3c(OC)n2)c(OC)cn1)C(F)(F)F (some centres unmarked) [Example 2-4] ) is 4.3 nM

# EC50 (compound: CCC(/C=C/C(F)(F)F)NC(=O)N(CC)[C@@H](c1cc(-c2cn3cc(C)nc3c(OC)n2)c(OC)cn1)C(F)(F)F (some centres unmarked) [Example 6-5] ) is 18.9 nM

# EC50 (compound: CCN(C(=O)NC(C1CC(F)(F)CCO1)C(F)(F)F)[C@H](C)c1cccc(-c2cn3ccnc3c(OC)n2)c1 (some centres unmarked) [Example 2-33] ) is 0.8 nM

# EC50 (compound: CCOC(=O)CC(NC(=O)N(CC)[C@H](C)c1cccc(-c2cn3ccnc3c(OC)n2)c1)C(F)(F)F (some centres unmarked) [Example 1-11] ) is 20.1 nM
